# Procedure Text: clinical
# Test Context: human, in vivo, po, peak in the BAC
Quantity: Cmax (µg/mL)

- Compound: "CCO"
  Observed Measurement: 697
